- target.under.test: Amyloid-beta precursor protein (Homo sapiens, UniProt P05067)
- Sequence (P05067 whole entry): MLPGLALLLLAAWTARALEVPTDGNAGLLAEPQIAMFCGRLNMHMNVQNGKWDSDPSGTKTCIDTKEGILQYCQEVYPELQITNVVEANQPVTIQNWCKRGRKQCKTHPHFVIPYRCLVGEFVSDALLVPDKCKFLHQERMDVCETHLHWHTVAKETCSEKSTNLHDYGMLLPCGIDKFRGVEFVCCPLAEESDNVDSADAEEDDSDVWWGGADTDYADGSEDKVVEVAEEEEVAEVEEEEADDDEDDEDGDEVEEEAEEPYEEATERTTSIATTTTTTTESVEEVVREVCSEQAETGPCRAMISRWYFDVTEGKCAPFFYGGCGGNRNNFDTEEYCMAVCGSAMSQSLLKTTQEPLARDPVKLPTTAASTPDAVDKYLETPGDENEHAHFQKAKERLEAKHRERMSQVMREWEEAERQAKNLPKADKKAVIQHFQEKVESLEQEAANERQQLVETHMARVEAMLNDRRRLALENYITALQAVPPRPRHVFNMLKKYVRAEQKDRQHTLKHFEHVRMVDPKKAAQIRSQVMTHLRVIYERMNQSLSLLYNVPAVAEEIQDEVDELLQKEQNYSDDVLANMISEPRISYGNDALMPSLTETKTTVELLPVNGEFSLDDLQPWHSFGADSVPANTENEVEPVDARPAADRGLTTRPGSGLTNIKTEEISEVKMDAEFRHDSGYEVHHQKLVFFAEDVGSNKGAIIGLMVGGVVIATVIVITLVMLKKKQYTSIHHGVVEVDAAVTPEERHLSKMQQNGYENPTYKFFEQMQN
- assay.method.text: Inhibition of self-induced aggregation amyloid beta (1 to 40) (unknown origin) incubated for 24 hrs by Thioflavin T based fluorometric assay
pIC50: −log10 of the molar value.
measured.metric: pIC50

(A) COC(=O)c1c(C)c(C/C=C(\C)CC/C=C(\C)CCC=C(C)C)c(OC)c(O)c1O
(B) COc1c(O)c(O)c(C(=O)O)c(C)c1C/C=C(\C)CC/C=C(\C)CCC=C(C)C
Form field 'greater pIC50' accepts A or B ; which applies? State the label of the item chosen.
B

###

// IC50 collected for Beta-secretase 1 (Homo sapiens)
measured.metric: IC50 (µM)

# compound, target.under.test, IC50 [µM]
data = [
    ("C/C(=C\\Cc1c(O)cc(C)c(C(=O)O)c1O)CCCC1=C/C(=C\\C(C)(C)O)OC1=O", "Beta-secretase 1 (Homo sapiens)", 10.5),
]

(P) COC(=O)c1c(C)cc(O)c(C/C=C(\C)CCCC2=C/C(=C\C(C)(C)O)OC2=O)c1O
(Q) CC(C)=CCC/C(C)=C/CC/C(C)=C/Cc1c(O)cc(C)c(C(=O)O)c1O [GRIFOLIC ACID]
Input pair: P , Q . Output: entry with lower IC50. State the label of the item chosen.
Q

###

- target.under.test: Amyloid-beta precursor protein (Homo sapiens)
- assay.method.text: Inhibition of self-induced aggregation amyloid beta (1 to 40) (unknown origin) incubated for 24 hrs by Thioflavin T based fluorometric assay
measured.metric: IC50 (µM)

# line.notation, unit.tag, IC50
records = [
    ("COC(=O)c1c(C)cc(O)c(C/C=C(\\C)CCCC2=C/C(=C\\C(C)(C)O)OC2=O)c1O", "µM", 40.7),
    ("C/C(=C\\Cc1c(O)cc(C)c(C(=O)O)c1O)CCCC1=C/C(=C\\C(C)(C)O)OC1=O", "µM", 51.4),
    ("C/C(=C\\Cc1c(O)cc(C)c(C(=O)O)c1O)CC/C=C(\\C)CC[C@H](O)C(C)(C)O", "µM", 53.3),
]
